# Tested on: winter barley (Hordeum vulgare)
# ASSAY OVERVIEW: Test B postemergence plant response
# Type: in vivo
# STUDY CONDITIONS: Postemergence, 31 g ai/ha; 0 to 100 scale (0 no effect, 100 complete control)
REPORTED ENDPOINT: Plant response rating, Barley
Write no unit; give the number alone.

Note to self: Plant response rating, Barley recorded for COCCCn1c(-c2cccc(F)c2)ncc(C(=O)C2=C(O)CCCC2=O)c1=O [Compound 126] was 5

Note to self: Plant response rating, Barley recorded for O=C1CCCC(O)=C1C(=O)c1cnc(-c2ccccc2)n(C2CCOCC2)c1=O [Compound 129] was 0

Note to self: Plant response rating, Barley recorded for Cc1ccc(-n2c(-c3cc(F)cc(F)c3)ncc(C(=O)C3=C(O)CCCC3=O)c2=O)cc1 [Compound 162] was 30

Note to self: Plant response rating, Barley recorded for CCCn1c(-c2ccccc2)ncc(C(=O)C2=C(O)C3CCC(C3)C2=O)c1=O (stereo not drawn) [Compound 226] was 10

Note to self: Plant response rating, Barley recorded for O=C1CCCC(O)=C1C(=O)c1cnc(-c2ccccc2)n(C2CC[S+]([O-])CC2)c1=O (mixture of isomers) [Compound 169] was 0

Note to self: Plant response rating, Barley recorded for O=C1CCCC(O)=C1C(=O)c1cnc(-c2ccsc2)n(C2CCOCC2)c1=O [Compound 186] was 0

Note to self: Plant response rating, Barley recorded for COCCCn1c(-c2cc(F)cc(F)c2)ncc(C(=O)C2=C(O)C3CCC(C3)C2=O)c1=O (stereo not drawn) [Compound 244] was 50

Note to self: Plant response rating, Barley recorded for CCCn1c(-c2cc(Cl)cc(Cl)c2)ncc(C(=O)C2=C(O)CCCC2=O)c1=O [Compound 173] was 5

Note to self: Plant response rating, Barley recorded for CCCn1c(-c2cccc(F)c2)ncc(C(=O)C2=C(O)CCCC2=O)c1=O [Compound 127] was 0

* * *

# Tested on: morningglory (Ipomoea spp.)
# ASSAY OVERVIEW: Test A pre-/postemergence plant response
# Format: in vivo
# STUDY CONDITIONS: Postemergence, 125 g ai/ha; 0 to 100 scale where 0 is no effect and 100 is complete control
REPORTED ENDPOINT: Plant response rating, Morningglory
Write no unit; give the number alone.

Note to self: Plant response rating, Morningglory recorded for COCCCn1c(-c2cccc(F)c2)ncc(C(=O)C2=C(O)CCCC2=O)c1=O was 100

Note to self: Plant response rating, Morningglory recorded for CCCn1c(-c2ccccc2F)ncc(C(=O)C2=C(O)CCCC2=O)c1=O was 60

Note to self: Plant response rating, Morningglory recorded for CCc1ccc(-n2c(-c3cccc(C)c3)ncc(C(=O)C3=C(O)CCCC3=O)c2=O)cc1 was 60

Note to self: Plant response rating, Morningglory recorded for O=C1CCCC(O)=C1C(=O)c1cnc(C2CCC2)n(-c2ccccc2)c1=O was 90

Note to self: Plant response rating, Morningglory recorded for CCCn1c(-c2cccc(C)c2)ncc(C(=O)C2=C(O)CCCC2=O)c1=O was 90

Note to self: Plant response rating, Morningglory recorded for CCn1c(-c2cccc(F)c2)ncc(C(=O)C2=C(O)C3CCC(C3)C2=O)c1=O (centres unmarked) was 100

Note to self: Plant response rating, Morningglory recorded for O=C1CCCC(O)=C1C(=O)c1cnc(-c2cccc(Br)c2)n(C2CCCCC2)c1=O was 100

Note to self: Plant response rating, Morningglory recorded for CCCn1c(-c2cccc(OC)c2)ncc(C(=O)C2=C(O)CCCC2=O)c1=O was 90
